Target: feline FcRn (FCN-F82W3, Acrobiosystems) (feline)
Assay: SPR Carterra, IgG coupled, pH 6.0
reported-property: Kd (nM)
Answers are plain numbers, in nM.

>>> numeric_result("anti-NGF feline IgG1a, Fc variant S434Y, E293K (antibody, part only; not given: anti-NGF variable domains, light chain, not shown: another chain or arm of the molecule; small tags and cut ends) Fc: PPEMLGGPSIFIFPPKPKDTLSISRTPEVTCLVVDLGPDDSDVQITWFVDNTQVYTAKTSPRKEQFNSTYRVVSVLPILHQDWLKGKEFKCKVNSKSLPSPIERTISKAKGQPHEPQVYVLPPAQEELSRNKVSVTCLIKSFHPPDIAVEWEITGQPEPENNYRTTPPQLDSDGTYFVYSKLSVDRSHWQRGNTYTCSVSHEALHYHHTQKSLTQSPGK")
4.1

Now for a further binder.
Q. Quick one: Kd of anti-NGF feline IgG1a, Fc variant S428L, I383L (antibody, part only; not given: anti-NGF variable domains, light chain, not shown: another chain or arm of the molecule; small tags and cut ends) Fc: PPEMLGGPSIFIFPPKPKDTLSISRTPEVTCLVVDLGPDDSDVQITWFVDNTQVYTAKTSPREEQFNSTYRVVSVLPILHQDWLKGKEFKCKVNSKSLPSPIERTISKAKGQPHEPQVYVLPPAQEELSRNKVSVTCLIKSFHPPDIAVEWELTGQPEPENNYRTTPPQLDSDGTYFVYSKLSVDRSHWQRGNTYTCSVLHEALHSHHTQKSLTQSPGK ?
A. 9.9
